Assay remarks: Pharmacokinetic study, plasma concentration by LC-MS/MS
Assay type: in vivo, ICR mice
Details: ICR, mouse, read-out: drug half-life period (converted)
# reported half-life; entries follow
Endpoint label: half-life (h)

>  <Molecule>
Cc1cc(C(N)=O)ccc1-n1c(CCC(=O)O)ccc1-c1ccc(-n2ccnc2)cc1 [N6022, reference compound]

>  <Unit symbol>
h

>  <Recorded number>
0.76

$$$$
>  <Molecule>
Cc1cc(C(N)=O)ccc1-n1c(CCC(=O)N2CCSC2=O)ccc1-c1ccc(-n2ccnc2)cc1 [subject compound 1]

>  <Unit symbol>
h

>  <Recorded number>
1.62

$$$$

---

Assay remarks: Pharmacokinetic study, plasma concentration by LC-MS/MS
Assay type: in vivo, ICR mice
Details: ICR, mouse, po
Endpoint label: bioavailability (%)

>  <Compound>
Cc1cc(C(N)=O)ccc1-n1c(CCC(=O)N2CCSC2=O)ccc1-c1ccc(-n2ccnc2)cc1 [subject compound 1]

>  <Unit symbol>
%

>  <Recorded number>
60.1

$$$$

Origin of measurements: patent US11667616B2
